# Test system: M14 melanoma
# assay-text: NCI-60 one-dose screen, 48 h
# experimental-setup: 10 µM unless noted
About 83,000 compounds went through this panel and 20% of them were active in at least one assay; those are over-represented in the sample as a whole. Activity calls are given as the source filed them. Rule for the calls: active = growth percent below 10; inactive = the rest.
Classes used: active, inactive

compound: O=C1c2cccc3c([N+](=O)[O-])ccc(c23)C(=O)N1CCCCl
category-label: active

compound: Cc1sc2nc(N3CCCCC3)[nH]c(=O)c2c1C
category-label: inactive

compound: COc1ccc(CCN2C(=O)CCC3=C2CCCC3=O)cc1OC
category-label: inactive

compound: CCN(CC)CCOCC[C@H]1CC[C@H]2[C@@H]3[C@H](C)Cc4cc(OS(N)(=O)=O)ccc4[C@H]3CC[C@]12C
category-label: active

compound: Cc1ccccc1NC(=O)N/C(N)=N/c1nc2ccccc2s1
category-label: active

compound: COC(=O)c1c(NC(=O)CSc2nnnn2-c2ccc(OC)cc2)sc(C)c1C
category-label: inactive

compound: C/C(=C\CCc1ccoc1)CC/C=C(\C)CCCN1CCOCC1
category-label: inactive

compound: CC1=C([Se]CC(OC(=O)[C@@H](CSSC(C)(C)C)NC(=O)C(C)(C)C)C(=O)NCCCCCC(=O)OCc2ccccc2)C(=O)c2ccccc2C1=O (some centres undefined)
category-label: active

compound: CN(C)CCCN=c1cc2c(=O)n(CCCN(C)C)c(=O)c3c(NCCCN(C)C)cc4c(O)n(CCCN(C)C)c(=O)c1c4c3-2
category-label: active

compound: Nc1nc(Nc2ccccc2SSc2ccccc2Nc2nc(N)nc(C(Cl)(Cl)Cl)n2)nc(C(Cl)(Cl)Cl)n1
category-label: inactive

compound: CCCCCCCSc1ncnc2[nH]ncc12
category-label: inactive

compound: COc1cc(-c2nc3nc4sc(C)c(C)c4c(=O)n3[nH]2)cc(OC)c1OC
category-label: inactive

compound: COc1cccc(-c2nc3cc(NC(=O)c4ccc(Cl)c(C#N)c4)ccc3o2)c1
category-label: active

compound: CCCCCCCC[Si](OCC)(OCC)OCC
category-label: inactive

###

# System: TK-10 renal
# assay-text: NCI-60 one-dose screen, 48 h
# experimental-setup: 10 µM unless noted
Compounds without any hit were thinned out: in the full panel of roughly 83,000, 20% have a hit. The source made the active and inactive calls. The calls were made as follows: active = growth percent below 10; inactive = the rest.
Classes used: active, inactive

molecule: CCOC(=O)CCN(c1c(Cl)ssc1=O)C(C)C
category-label: inactive

molecule: Cc1cc(C)c2c(N)c3cccc(C)c3nc2n1
category-label: active

molecule: COc1ccc(C2=NN(C(N)=S)C(c3ccc4c(c3)OCO4)C2)cc1 (centres undefined)
category-label: inactive

molecule: Cc1ccc(C(=O)Cc2ccccc2)c(O)c1
category-label: inactive

molecule: O=C(/C=C/c1cccc(Nc2ccnc3cc(Cl)ccc23)c1)c1ccc(Cl)cc1
category-label: inactive

molecule: N#Cc1c(-c2ccccc2)cc(-c2ccccc2)n(CCCCCCC(=O)O)c1=O
category-label: inactive

molecule: CC(C)CNc1nc(N=[N+]=[N-])nc(NCC(C)C)n1
category-label: inactive

molecule: FC(F)(F)c1cc(-c2nnc3n2N=C(N2CCCC2)CS3)cc(C(F)(F)F)c1
category-label: active

molecule: Cc1ccc(S(=O)(=O)NCCN2c3nc4ccccc4cc3Sc3cc4ccccc4nc32)cc1
category-label: inactive

molecule: COc1ccc(CNC(=O)c2c(C)n([O-])c3cc(F)c(F)cc3[n+]2=O)cc1
category-label: inactive

molecule: O=C1C=CC(=O)N1c1ccccn1
category-label: inactive

molecule: CCSc1ncc(Br)c(Sc2nc(N)nc3nc[nH]c23)n1
category-label: inactive

molecule: Cc1cc(=O)[nH]c(/C(=N/Nc2ccccc2)C(=O)c2ccc(Cl)cc2)n1
category-label: inactive

molecule: Cc1ccc2c(c1)C(=O)/C(=C\Nc1ccc(C(N)=O)cc1)C(O)O2 (centres undefined)
category-label: inactive

molecule: COc1ccc(C(=O)COc2ccc(/C=C3\Oc4ccc5ccccc5c4C3=O)cc2)cc1
category-label: inactive

molecule: O=C(Nc1nc2ccc(OC(F)(F)F)cc2s1)c1ccc(F)cc1
category-label: inactive

molecule: O=c1[nH]c(N2CCC(Cc3ccccc3)CC2)nc2sc3c(c12)CCCC3
category-label: inactive

molecule: Clc1ccc2nc(CI)c(CI)nc2c1
category-label: inactive

molecule: Cn1c(N2N=C(c3ccc(Cl)cc3)CC2c2ccccc2)nc(-c2ccccc2)c(C#N)c1=O (centres undefined)
category-label: inactive

molecule: COc1ccc(/C=C2\CCc3ccccc3C2=O)cc1
category-label: inactive

molecule: Cc1ccc(C2=Nc3c(ccc4c(C)c(C)c(=O)oc34)OC2)cc1
category-label: inactive

molecule: Nc1ccc2c(c1)C(=O)c1cc(Cl)c(Cl)cc1-2
category-label: inactive

molecule: Nc1ccccc1C#Cc1ccccc1C#Cc1ccc(OCCCCCCOc2ccc(C#Cc3ccccc3C#Cc3ccccc3N)cc2)cc1
category-label: inactive

molecule: COc1cc(C(=O)c2cc3c(cc2C)OCO3)cc(OC)c1OC
category-label: inactive

molecule: C=C(CN1CCc2c([nH]c3ccccc23)C1)c1ccc(C(=O)Nc2ccon2)cc1
category-label: inactive

molecule: Cc1c2oc3c(C)ccc(C(=O)OC(C)C4NC(=O)C(C(C)C)N(C)C(=O)CN(C)C(=O)C5CCCN5C(=O)C(C(C)C)NC4=O)c3nc-2c(C(=O)OC(C)C2NC(=O)C(C(C)C)N(C)C(=O)CN(C)C(=O)C3CCCN3C(=O)C(C(C)C)NC2=O)c(N)c1=O (centres undefined)
category-label: active

molecule: Cc1ccc(-c2csc(N)n2)cc1
category-label: inactive

molecule: CC(=O)O[C@H]1CC[C@@]2(C)C(=CC[C@@H]3[C@@H]2CC[C@]2(C)C(c4cccnc4)=CC[C@@H]32)C1
category-label: inactive

molecule: O=C(CNC(=O)c1cccc2ccccc12)Nc1ccccc1Oc1ccc(O)cc1
category-label: inactive

molecule: O=C1/C(=C/c2ccc(F)cc2)Cc2ccccc21
category-label: inactive

molecule: CCOc1cc(/C=C/C(=O)C(C(=O)/C=C/c2ccc(OC(=O)CNc3nnc(C)s3)c(OCC)c2)C(=O)CNc2nnc(C)s2)ccc1OC(=O)CNc1nnc(C)s1
category-label: inactive

molecule: O=C(/C=C(\Nc1ccccc1)c1ccccc1)c1cn(-c2ccc([N+](=O)[O-])cc2)nn1
category-label: inactive

molecule: CCCCCN(CCCCC)CCCNc1c2c(nc3ccc(Cl)cc13)CCCC2
category-label: inactive

molecule: COc1ccc2[nH]c(=O)c(CNc3ccc(Nc4nccc(-c5ccc(Cl)cc5)n4)cc3)cc2c1
category-label: inactive

Cited source: PubChem BioAssay (NCI)
